- System: ACR-2R (ACR-2-containing acetylcholine receptor: UNC-38, UNC-63, ACR-12, ACR-2, ACR-3)
- Assay setup: agonist; 1 mM external CaCl2; 500 µM and 1 mM points excluded from fit (open-channel block); n2420 gain-of-function subunit ACR-2(V13′M)
Assay endpoint: EC50 (µM)
One number for each entry, in µM.

QUERY: Would you kindly share the measured EC50 for "CC(=O)OCC[N+](C)(C)C" ?
RESULT: 17.8
